Value source: patent US11242346B2

target: mTOR (FRAP1) (Homo sapiens, UniProt P42345)
protocol.summary: SelectScreen Profiling, Z'-LYTE kinase assay, mTOR (FRAP1)
Type: biochemical
measurement.conditions: 0.1 μM compound, ATP at Km, read-out: mTOR inh% @0.1 μM
property: inhibition at 0.1 µM (%)

Here are 4 compounds together with their reported answers.
>>> df
                                   compound              property  readout_units  result_value
0  CN(C)C1CN(C(=O)c2ccc(NC(=O)Nc3ccc(-c4nc(N5CCOCC5)c5cccn5n4)cc3)cc2)C1  inhibition at 0.1 µM              %            82
1  CN(C)C1CCN(C(=O)c2ccc(NC(=O)Nc3ccc(-c4nc(N5CCOCC5)c5cccn5n4)cc3)cc2)CC1  inhibition at 0.1 µM              %            98
2  CN(C)[C@@H]1CCN(C(=O)c2ccc(NC(=O)Nc3ccc(-c4nc(N5CCOCC5)c5cccn5n4)cc3)cc2)C1  inhibition at 0.1 µM              %            97
3  CN(C)C1CCN(C(=O)c2ccc(NC(=O)Nc3ccc(-c4nc(N5CCOCC5)c5ccc(C(F)(F)F)n5n4)cc3)cc2)CC1  inhibition at 0.1 µM              %            62

1. C[C@@H](CO)NC(=O)Nc1ccc(-c2nc(N3CCOCC3)c3cccn3n2)cc1
2. CS(=O)(=O)N1CCN(Cc2cc3nc(-c4cccc5[nH]ncc45)nc(N4CCOCC4)c3s2)CC1 [GDC0941, reference compound]
Please tell me which of the two, 1 or 2 , has the higher reported inhibition at 0.1 µM value. Response format: the label of the selected entry.
1

====

protocol.summary: Rat pharmacokinetic study (IV and PO)
Format: in vivo
measurement.conditions: blood, IV 5 mg/kg
property: half-life (h)

In [3]: df
Out[3]:
                                smiles_code   property  result_value
0  S=C(Nc1ccc(-c2nc(N3CCOCC3)c3cccn3n2)cc1)Nc1cccnc1  half-life          1.42

1. OCCNC(=S)Nc1ccc(-c2nc(N3C[C@H]4CC[C@@H](C3)O4)c3cccn3n2)cc1
2. O=C(NCCO)Nc1ccc(-c2nc(N3CCOCC3)c3cccn3n2)cc1
Between the two listed entries 1 and 2 , which has its half-life at the higher number? State your choice using its label.
1
(1: 2.13 h, 2: 1.49 h)

====

protocol.summary: Rat pharmacokinetic study (IV and PO)
Format: in vivo
measurement.conditions: blood, IV 5 mg/kg
property: clearance (mL/min/kg)

>>> print(df.to_string())
                                   compound  result_value
0  CN(C)C1CCN(C(=O)c2ccc(NC(=O)Nc3ccc(-c4nc(N5CCOCC5)c5cccn5n4)cc3)cc2)CC1 [Example 15]          17.8
1  O=C(NCCO)Nc1ccc(-c2nc(N3C[C@H]4CC[C@@H](C3)O4)c3cccn3n2)cc1 [Example 127]          24.4
2  S=C(Nc1ccc(-c2nc(N3CCOCC3)c3cccn3n2)cc1)Nc1cccnc1 [Example 106]          2.03
3  O=C(Nc1ccc(-c2nc(N3CCOCC3)c3cccn3n2)cc1)Nc1cccnc1 [Example 14]          10.3
4  OCCNC(=S)Nc1ccc(-c2nc(N3C[C@H]4CC[C@@H](C3)O4)c3cccn3n2)cc1 [Example 122]          7.35

A. CN1CCN(C(=O)c2ccc(NC(=O)Nc3ccc(-c4nc(N5CCOCC5)c5cccn5n4)cc3)cc2)CC1 [Example 46]
B. O=C(NCCO)Nc1ccc(-c2nc(N3CCOCC3)c3cccn3n2)cc1 [Example 29]
Lab note: check whether A or B has the lower measured clearance. Could you answer with the label of the item you picked?
B

====

target: FGFR1 (Homo sapiens, UniProt P11362)
Sequence (P11362 22-822): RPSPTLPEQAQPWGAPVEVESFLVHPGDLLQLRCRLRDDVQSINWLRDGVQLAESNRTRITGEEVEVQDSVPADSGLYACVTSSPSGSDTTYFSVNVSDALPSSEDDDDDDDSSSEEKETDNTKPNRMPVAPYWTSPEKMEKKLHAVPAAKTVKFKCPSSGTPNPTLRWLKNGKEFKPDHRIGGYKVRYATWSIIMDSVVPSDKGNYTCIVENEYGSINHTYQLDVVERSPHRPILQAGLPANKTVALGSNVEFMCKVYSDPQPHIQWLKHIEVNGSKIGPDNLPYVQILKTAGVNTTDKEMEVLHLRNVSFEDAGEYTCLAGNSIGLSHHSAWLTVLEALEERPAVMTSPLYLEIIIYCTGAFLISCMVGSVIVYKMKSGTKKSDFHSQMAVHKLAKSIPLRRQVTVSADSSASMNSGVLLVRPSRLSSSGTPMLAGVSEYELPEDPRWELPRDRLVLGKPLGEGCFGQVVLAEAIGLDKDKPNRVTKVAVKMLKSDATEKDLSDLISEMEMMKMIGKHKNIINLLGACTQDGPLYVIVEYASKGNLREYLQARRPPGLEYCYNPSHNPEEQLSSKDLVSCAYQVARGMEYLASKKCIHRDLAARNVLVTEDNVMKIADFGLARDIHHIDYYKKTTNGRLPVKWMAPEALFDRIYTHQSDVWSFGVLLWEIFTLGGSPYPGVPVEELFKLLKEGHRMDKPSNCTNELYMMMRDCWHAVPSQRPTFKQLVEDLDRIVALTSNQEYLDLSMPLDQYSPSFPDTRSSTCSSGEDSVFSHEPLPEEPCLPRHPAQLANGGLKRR
protocol.summary: SelectScreen Profiling, Z'-LYTE kinase assay, FGFR1
Format: biochemical
measurement.conditions: 1 μM compound, ATP at Km, read-out: FGFR 1 inh % @1 μM
property: inhibition at 1 µM (%)

Before answering, review these 3 worked examples.
In [3]: df
Out[3]:
                                smiles_code            property  result_value
0  O=C(NCCO)Nc1ccc(-c2nc(N3CCOCC3)c3cccn3n2)cc1  inhibition at 1 µM            -1
1  O=C(Nc1ccc(C(=O)N2CC(O)C2)cc1)Nc1ccc(-c2nc(N3CCOCC3)c3cccn3n2)cc1  inhibition at 1 µM            -4
2  CN(C)CCCNC(=O)c1ccc(NC(=O)Nc2ccc(-c3nc(N4CCOCC4)c4cccn4n3)cc2)cc1  inhibition at 1 µM             6

I. CN1CCCN(C(=O)c2ccc(NC(=O)Nc3ccc(-c4nc(N5CCOCC5)c5cccn5n4)cc3)cc2)CC1
II. CN1CCN(C(=O)c2ccc(NC(=O)Nc3ccc(-c4nc(N5CCOCC5)c5cccn5n4)cc3)cc2)CC1
III. O=C(Nc1ccc(C(=O)N2CCC(O)CC2)cc1)Nc1ccc(-c2nc(N3CCOCC3)c3cccn3n2)cc1
IV. OCCNC(=S)Nc1ccc(-c2nc(N3C[C@H]4CC[C@@H](C3)O4)c3cccn3n2)cc1
Returns the items ordered by inhibition at 1 µM, from maximum to minimum. Provide your answer as the labels ordered per the instruction.
I, IV, III, II
(I: 7%, IV: 0%, III: -1%, II: -3%)

====

protocol.summary: Metabolic stability in human liver microsome (HLM)
Format: in vitro ADME
measurement.conditions: incubation with human liver microsome for 60 min
property: metabolic stability in HLM

                                smiles_code                    property          result_value
0  O=C(NCCO)Nc1ccc(-c2nc(N3CCOCC3)c3cccn3n2)cc1  metabolic stability in HLM  metabolically stable
1  S=C(Nc1ccc(-c2nc(N3CCOCC3)c3cccn3n2)cc1)Nc1cccnc1  metabolic stability in HLM  metabolically stable
2  O=C(NCCO)Nc1ccc(-c2nc(N3C[C@H]4CC[C@@H](C3)O4)c3cccn3n2)cc1  metabolic stability in HLM  metabolically stable
3  O=C(Nc1ccc(C(=O)N2CCC(O)CC2)cc1)Nc1ccc(-c2nc(N3CCOCC3)c3cccn3n2)cc1  metabolic stability in HLM  metabolically stable
4  C[C@@H]1COCCN1c1nc(-c2ccc(NC(=O)Nc3ccc(C(=O)N4CC[C@H](O)C4)cc3)cc2)nn2cccc12  metabolic stability in HLM  metabolically stable

Record summary for `O=C(Nc1ccc(-c2nc(N3CCOCC3)c3cccn3n2)cc1)Nc1ccc(CO)nc1` : reported metabolic stability in HLM = metabolically stable

====

System: SKOV-3
property: GI50 (nM)
Give just the numeric value; nM need not be written.

Some molecules with recorded GI50:
In [3]: df
Out[3]:
                                smiles_code  target  readout_units  result_value
0  CN(C)C1CCN(C(=O)c2ccc(NC(=O)Nc3ccc(-c4nc(N5CCOCC5)c5cccn5n4)cc3)cc2)CC1  SKOV-3             nM          46.3
1  CN1CCN(C(=O)c2ccc(NC(=O)Nc3ccc(-c4nc(N5CCOCC5)c5cccn5n4)cc3)cc2)CC1  SKOV-3             nM          26.8
2  O=C(Nc1ccc(-c2nc(N3CCOCC3)c3cccn3n2)cc1)Nc1cccnc1  SKOV-3             nM          98.7

Turning now to a further record.
Record `OCCNC(=S)Nc1ccc(-c2nc(N3C[C@H]4CC[C@@H](C3)O4)c3cccn3n2)cc1` / SKOV-3, GI50 recorded as 18.9

====

target: HER2 (Homo sapiens)
Sequence (P04626 23-1255): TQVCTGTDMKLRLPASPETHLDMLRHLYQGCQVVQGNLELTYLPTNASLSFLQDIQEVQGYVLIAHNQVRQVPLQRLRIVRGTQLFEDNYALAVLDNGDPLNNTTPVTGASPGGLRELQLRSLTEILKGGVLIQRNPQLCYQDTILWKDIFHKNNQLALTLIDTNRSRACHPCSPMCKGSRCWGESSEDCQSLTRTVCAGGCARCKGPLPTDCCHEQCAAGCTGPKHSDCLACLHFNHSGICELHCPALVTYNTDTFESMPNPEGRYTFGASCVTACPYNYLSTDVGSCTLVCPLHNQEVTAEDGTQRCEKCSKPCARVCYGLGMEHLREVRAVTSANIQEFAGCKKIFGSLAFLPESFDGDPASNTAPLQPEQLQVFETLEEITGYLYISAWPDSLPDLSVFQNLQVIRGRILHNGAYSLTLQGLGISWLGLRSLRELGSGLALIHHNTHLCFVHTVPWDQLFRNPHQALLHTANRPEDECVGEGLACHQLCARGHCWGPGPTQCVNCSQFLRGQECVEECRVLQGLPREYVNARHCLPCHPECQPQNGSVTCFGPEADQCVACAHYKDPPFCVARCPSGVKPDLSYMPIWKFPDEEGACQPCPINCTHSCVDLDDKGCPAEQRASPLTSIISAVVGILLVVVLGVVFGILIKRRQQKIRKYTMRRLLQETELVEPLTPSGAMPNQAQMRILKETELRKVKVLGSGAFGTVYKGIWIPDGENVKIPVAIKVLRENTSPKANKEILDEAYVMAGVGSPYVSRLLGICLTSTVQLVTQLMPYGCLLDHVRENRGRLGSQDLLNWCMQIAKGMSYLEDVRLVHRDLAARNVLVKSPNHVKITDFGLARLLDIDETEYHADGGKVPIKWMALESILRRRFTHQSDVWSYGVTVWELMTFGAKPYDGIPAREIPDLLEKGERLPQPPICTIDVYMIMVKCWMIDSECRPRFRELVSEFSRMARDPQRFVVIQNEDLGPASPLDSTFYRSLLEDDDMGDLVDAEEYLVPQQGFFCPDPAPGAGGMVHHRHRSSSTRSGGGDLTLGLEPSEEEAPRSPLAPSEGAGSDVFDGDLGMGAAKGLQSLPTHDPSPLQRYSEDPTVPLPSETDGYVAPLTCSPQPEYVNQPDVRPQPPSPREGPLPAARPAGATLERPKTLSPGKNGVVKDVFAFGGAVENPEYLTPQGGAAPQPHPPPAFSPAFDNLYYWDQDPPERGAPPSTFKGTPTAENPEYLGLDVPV
protocol.summary: SelectScreen Profiling, Z'-LYTE kinase assay, HER2
Format: biochemical
measurement.conditions: 1 μM compound, ATP at Km, read-out: HER2 inh % @1 μM
property: inhibition at 1 µM (%)

A selection of reference data follows.
In [3]: df
Out[3]:
                                smiles_code               target  readout_units  result_value
0  O=C(Nc1ccc(C(=O)N2CCC(O)CC2)cc1)Nc1ccc(-c2nc(N3CCOCC3)c3cccn3n2)cc1  HER2 (Homo sapiens)              %             5
1  CC(C)(C)C(=O)OCCNC(=O)Nc1ccc(-c2nc(N3C[C@H]4CC[C@@H](C3)O4)c3cccn3n2)cc1  HER2 (Homo sapiens)              %             5

1. OCCNC(=S)Nc1ccc(-c2nc(N3C[C@H]4CC[C@@H](C3)O4)c3cccn3n2)cc1
2. CN(C)C1CCN(C(=O)c2ccc(NC(=O)Nc3ccc(-c4nc(N5CCOCC5)c5cccn5n4)cc3)cc2)CC1
Identify the entry with the larger inhibition at 1 µM. Options: 1 and 2 Your answer should be the label attached to the chosen record.
1

I. O=C(NCCO)Nc1ccc(-c2nc(N3CCOCC3)c3cccn3n2)cc1
II. O=C(Nc1ccc(C(=O)N2CC(O)C2)cc1)Nc1ccc(-c2nc(N3CCOCC3)c3cccn3n2)cc1
I would appreciate it if you could say which entry, I or II , has the lower inhibition at 1 µM value. Give the label of your selection.
I

I. CN(C)CCNC(=O)c1ccc(NC(=O)Nc2ccc(-c3nc(N4CCOCC4)c4cccn4n3)cc2)cc1
II. CN(C)CCCNC(=O)c1ccc(NC(=O)Nc2ccc(-c3nc(N4CCOCC4)c4cccn4n3)cc2)cc1
Pick one: I or II . Which has the bigger inhibition at 1 µM number? Selection: enter the item's label.
II
(II: -5%, I: -9%)

1. O=C(Nc1ccc(-c2nc(N3CCOCC3)c3cccn3n2)cc1)Nc1cccnc1
2. CN(C)[C@@H]1CCN(C(=O)c2ccc(NC(=O)Nc3ccc(-c4nc(N5CCOCC5)c5cccn5n4)cc3)cc2)C1
For this pair, 1 and 2 , which shows a numerically higher inhibition at 1 µM? Provide the label of your selected option as the answer.
2

1. CN1CCCN(C(=O)c2ccc(NC(=O)Nc3ccc(-c4nc(N5CCOCC5)c5cccn5n4)cc3)cc2)CC1
2. CN1CCN(C(=O)c2ccc(NC(=O)Nc3ccc(-c4nc(N5CCOCC5)c5cccn5n4)cc3)cc2)CC1
Given the listed records, identify the one among 1 and 2 with higher inhibition at 1 µM. API: response body contains the label of the selected item.
1
